Measured values drawn from patent US20230105212A1 for this set.

# study-system: PD-L1 protein on the surface of MC38-hPDL1 tumor cells (Homo sapiens)
# Construct: expressed in transfected cells; host or cells: MC38-hPDL1 (mouse colon cancer cells)
# method-description: Induction of endocytosis of PD-L1 on the surface of tumor cells (flow cytometry)
# Assay type: cell-based
# assay-setup: MC38-hPDL1 cells, 16 hours incubation; read-out: MC38 maximum endocytosis rate
Mark T only when Emax stays strictly below 90%. Values equal to the cut-off are F.

Use these answered entries as a reference point.
| item-smiles | group-label |
| --- | --- |
| COc1nc(-c2cccc(-c3cccc(NC(=O)c4nc5c(n4C)CCN(C)C5)c3Cl)c2Cl)ccc1CNC(CO)CO | F |
| COc1nc(-c2cccc(-c3cccc(NC(=O)c4nc5c(n4C)CCN(C)C5)c3Cl)c2Cl)ccc1CN1CC(C)(O)C1 | F |
| COc1cc(C(=O)Nc2cccc(-c3cccc(NC(=O)c4nc5c(n4C)CCN(C)C5)c3Cl)c2C)ncc1CNC1CCOCC1 | F |

Alright, here's another compound for you.
## Input Identify whether the compound COc1cc(C(=O)Nc2cccc(-c3cccc(NC(=O)c4nc5c(n4C)CCN(C)C5)c3Cl)c2C)ncc1CNc1cc(C)ccn1 records Emax below 90%.
## Output T

* * *

# study-system: PD-L1 protein on the surface of MC38-hPDL1 tumor cells (Homo sapiens, UniProt Q9NZQ7)
# Construct: expressed in transfected cells; host or cells: MC38-hPDL1 (mouse colon cancer cells)
# Sequence (Q9NZQ7 19-290): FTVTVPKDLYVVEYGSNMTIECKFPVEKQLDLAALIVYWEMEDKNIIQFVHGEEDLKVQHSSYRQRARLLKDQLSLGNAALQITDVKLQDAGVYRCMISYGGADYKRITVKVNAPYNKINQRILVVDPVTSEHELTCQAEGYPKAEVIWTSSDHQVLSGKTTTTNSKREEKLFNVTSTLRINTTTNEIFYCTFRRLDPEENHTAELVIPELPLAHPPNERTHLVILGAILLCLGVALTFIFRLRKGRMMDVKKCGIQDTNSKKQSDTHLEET
# method-description: Induction of endocytosis of PD-L1 on the surface of tumor cells (flow cytometry)
# Format: cell-based
# assay-setup: MC38-hPDL1 cells, 16 hours incubation; read-out: MC38 maximum endocytosis rate
experimental-endpoint: Emax (%)
Write the value in % as a bare number.

| compound | study-system | Emax (%) |
| --- | --- | --- |
| COc1nc(-c2cccc(-c3cccc(NC(=O)c4nc5c(n4C)CCN(C)C5)c3Cl)c2Cl)ccc1CNC1CCOCC1C(=O)O (stereo not shown) [Embodiment 214] | PD-L1 protein on the surface of MC38-hPDL1 tumor cells (Homo sapiens, UniProt Q9NZQ7) | 93 |
| COc1nc(-c2cccc(-c3cccc(NC(=O)c4nc5c(n4C4CC4)CCN(C)C5)c3Cl)c2Cl)ccc1CN1CC(CO)C1 [Embodiment 245] | PD-L1 protein on the surface of MC38-hPDL1 tumor cells (Homo sapiens, UniProt Q9NZQ7) | 93 |
| COc1cc(C(=O)Nc2cccc(-c3cccc(NC(=O)c4nc5c(n4C)CCN(C)C5)c3Cl)c2C)ncc1CN1CC[C@@H](F)C1 [Embodiment 25] | PD-L1 protein on the surface of MC38-hPDL1 tumor cells (Homo sapiens, UniProt Q9NZQ7) | 95 |
| CCN1CCc2c(nc(C(=O)Nc3cccc(-c4cccc(NC(=O)c5cc(OC)c(CNc6ccnc(OC)c6)cn5)c4Cl)c3Cl)n2C)C1 [Embodiment 82] | PD-L1 protein on the surface of MC38-hPDL1 tumor cells (Homo sapiens, UniProt Q9NZQ7) | 85 |

For reference, reported Emax for COc1cc(C(=O)Nc2cccc(-c3cccc(NC(=O)c4nc5c(n4C)CCN(C)C5)c3Cl)c2C)ncc1CNc1ccnc(C)n1 [Embodiment 90] stands at 80

For reference, reported Emax for COc1cc(NCc2cnc(C(=O)Nc3cccc(-c4cccc(NC(=O)c5nc6c(n5C)CCN(C)C6)c4Cl)c3Cl)cc2OC)ccn1 [Embodiment 2] stands at 89

For reference, reported Emax for COc1nc(-c2cccc(-c3cccc(NC(=O)c4nc5c(n4C)CCN(C)C5)c3Cl)c2Cl)ccc1CN1CC2(CCCO2)C1 [Embodiment 125] stands at 96

For reference, reported Emax for COc1nc(-c2cccc(-c3cccc(NC(=O)c4nc5c(n4C)CCN(C)C5)c3Cl)c2Cl)ccc1CN1CCN(S(C)(=O)=O)CC1 [Embodiment 204] stands at 89

* * *

Quick reference for pIC50 among some molecules
# study-system: PD-L1 protein on the surface of MC38-hPDL1 tumor cells (Homo sapiens, UniProt Q9NZQ7)
# Construct: expressed in transfected cells; host or cells: MC38-hPDL1 (mouse colon cancer cells)
# method-description: Induction of endocytosis of PD-L1 on the surface of tumor cells (flow cytometry)
# Format: cell-based
# assay-setup: inducing endocytosis of PD-L1, MC38-hPDL1 cells, 16 hours incubation; read-out: MC38 IC50
The read-out pIC50 is expressed as -log10 of concentration in moles per litre.

| item-smiles | measured |
| --- | --- |
| COc1nc(-c2cccc(-c3cccc(NC(=O)c4nc5c(n4C)CCN(C)C5)c3Cl)c2Cl)cnc1CN1CC(F)C1 | 8.85 |
| COc1nc(-c2cccc(-c3cccc(NC(=O)c4nc5c(n4C)CCN(C)C5)c3Cl)c2Cl)ccc1CN1CC2(C1)CN(C(=O)C1CC1)C2 | 8.96 |

Next item in the queue.
For reference, reported pIC50 for COc1nc(-c2cccc(-c3cccc(NC(=O)c4nc5c(n4C)CCN(C)C5)c3Cl)c2Cl)ccc1CN[C@@H]1CCOC[C@@H]1F stands at 8.28

* * *

# study-system: human PD-1/PD-L1 binding (Homo sapiens)
# Construct: PD-L1-His protein (19 to 238 amino acids) (Abcam #ab167713); purchased Abcam (PD-L1-His); R&D (PD-1-Fc) ab167713; 1086-PD
# method-description: Inhibition of human PD-1/PD-L1 binding (TR-FRET/HTRF)
# assay-setup: TR-FRET, PD-L1-His and PD-1-Fc; read-out: PD-1/PD-L1 binding IC50
Quick reference for pIC50 among some molecules
The read-out pIC50 is expressed as -log10 of concentration in moles per litre.

| molecule | pIC50 |
| --- | --- |
| COc1nc(-c2cccc(-c3cccc(NC(=O)c4nc5c(n4C4CC4)CCN(C)C5)c3Cl)c2Cl)ccc1CN1CC(CO)C1 [Embodiment 245] | 8.36 |

For reference, reported pIC50 for COc1nc(-c2cccc(-c3cccc(NC(=O)c4nc5c(n4C)CCN(C)C5)c3Cl)c2Cl)ccc1CN1CC2(CC(NC(C)=O)C2)C1 [Embodiment 234] stands at 8.60

For reference, reported pIC50 for COc1nc(-c2cccc(-c3cccc(NC(=O)c4nc5c(n4C)CCN(C)C5)c3Cl)c2Cl)ccc1CN1CC2(CN(C=O)C2)C1 [Embodiment 193] stands at 8.19

For reference, reported pIC50 for COc1nc(-c2cccc(-c3cccc(NC(=O)c4nc5c(n4C)CCN(C)C5)c3Cl)c2Cl)ccc1CN1C2CC1CN(C(C)=O)C2 [Embodiment 209] stands at 8.15

For reference, reported pIC50 for COc1cc(NCc2cnc(C(=O)Nc3cccc(-c4cccc(NC(=O)c5nc6c(n5C)CCN(C)C6)c4Cl)c3C)cc2OC)ccn1 [Embodiment 1] stands at 8.16

For reference, reported pIC50 for COc1cc(NCc2cnc(C(=O)Nc3cccc(-c4cccc(NC(=O)c5nc6c(n5C)CCNC6)c4Cl)c3Cl)cc2OC)ccn1 [Embodiment 81] stands at 8.62

For reference, reported pIC50 for COc1nc(-c2cccc(-c3cccc(NC(=O)c4nc5c(n4C)CCN(C)C5)c3Cl)c2Cl)ncc1CN1CC(NC(C)=O)C1 [Embodiment 224] stands at 8.40

For reference, reported pIC50 for CCn1c(C(=O)Nc2cccc(-c3cccc(-c4ccc(CN5CC(CO)C5)c(OC)n4)c3Cl)c2Cl)nc2c1CCN(C)C2 [Embodiment 239] stands at 8.31

For reference, reported pIC50 for COc1nc(-c2cccc(-c3cccc(NC(=O)c4nc5c(n4C)CCN(C)C5)c3Cl)c2Cl)ccc1CN1CC[C@H]1C(=O)O [Embodiment 171] stands at 9.05

For reference, reported pIC50 for COc1nc(-c2cccc(-c3cccc(NC(=O)c4nc5c(n4C)CCN(C)C5)c3Cl)c2Cl)ccc1CN1CC2(CCCO2)C1 [Embodiment 125] stands at 8.08

* * *

# method-description: Pharmacokinetics test in Balb/C mice
# Format: in vivo
# assay-setup: male, mouse, po, p.o. 5 mg/kg, plasma, read-out: Curve area AUC0−t
Quick reference for AUC(0-t) among some compounds
Write the value in ng·h/mL as a bare number.

In the examples that follow, each entry is paired with its recorded AUC(0-t).
| item-smiles | AUC(0-t) / ng·h/mL |
| --- | --- |
| COc1nc(-c2cccc(-c3cccc(NC(=O)c4nc5c(n4C)CCN(C)C5)c3Cl)c2Cl)ccc1CN[C@@H]1CCCC[C@@H]1O | 629 |
| COc1nc(-c2cccc(-c3cccc(NC(=O)c4nc5c(n4C)CCN(C)C5)c3Cl)c2Cl)ccc1CN1CC2(COC2)C1 | 523 |

Next item in the queue.
For reference, reported AUC(0-t) for COc1nc(-c2cccc(-c3cccc(NC(=O)c4nc5c(n4C)CCN(C)C5)c3Cl)c2Cl)ccc1CN1CC(F)C1 stands at 500
